Each recorded value in this set is attributed to paper PMC4287394.

- assay-protocol: Plasma pharmacokinetics in patients
- Format: in vivo, human
- test-settings: human, plasma, po, Tmax, median, fasting, all doses
measured-attribute: Tmax (h)
One number for each entry, in h.

*Q* Given CS(=O)(=O)N1CCN(Cc2cc3nc(-c4cccc5[nH]ncc45)nc(N4CCOCC4)c3s2)CC1 , state its recorded Tmax.
*A* 2

----------
- assay-protocol: Plasma pharmacokinetics in patients
- Format: in vivo, human
- test-settings: human, plasma, oral, 450 mg, Tmax, median, Day 1, 450 mg QD, 3 patients
measured-attribute: Tmax (h)
Numbers only, in h.

*Q* Given CS(=O)(=O)N1CCN(Cc2cc3nc(-c4cccc5[nH]ncc45)nc(N4CCOCC4)c3s2)CC1 , state its recorded Tmax.
*A* 2
